The reported numbers originate from patent US20260083750A1.

Record set of IC50 for target or system HRAS (Homo sapiens, UniProt P01112).

* CC1COCCCN1c1nc(OC[C@@]23CCCN2C[C@H](F)C3)nc2c(F)c(-c3ccc(F)c4sc(N)c(C#N)c34)c(Cl)cc12 (stereo partly drawn) | > 11.1 µM
* CC1(NC[C@@]2(COc3nc(N4CCCOCC4)c4cc(Cl)c(-c5ccc(F)c6sc(N)c(C#N)c56)c(F)c4n3)CC2(F)F)COC1 | > 11.1 µM
* CC1CCN(c2nc(OC[C@@]34CCCN3C[C@H](F)C4)nc3c(F)c(-c4ccc(F)c5sc(N)c(C#N)c45)c(Cl)cc23)CCO1 (stereo partly drawn) | > 11.1 µM

Here are 3 compounds. What values of IC50 were reported for them?
1. Cc1cc(N)nc(-c2c(Cl)cc3c(N4CCCOCCC4)nc(OC[C@@]45CCCN4C[C@H](F)C5)nc3c2F)c1C(F)(F)F
2. C[C@H]1CCOCCN1c1nc(OC[C@@]23CCCN2C[C@H](F)C3)nc2c(F)c(-c3ccc(F)c4sc(N)c(C#N)c34)c(Cl)cc12 [Ex. 6]
3. C[C@H]1CCCCCN1c1nc(OC[C@@]23CCCN2C[C@H](F)C3)nc2c(F)c(-c3ccc(F)c4sc(N)c(C#N)c34)c(Cl)cc12

1. > 11.1 µM
2. 2.19 µM
3. > 11.1 µM
